- STUDY SYSTEM: Fatty acid synthase (Homo sapiens)
- Sequence (P49327 whole entry): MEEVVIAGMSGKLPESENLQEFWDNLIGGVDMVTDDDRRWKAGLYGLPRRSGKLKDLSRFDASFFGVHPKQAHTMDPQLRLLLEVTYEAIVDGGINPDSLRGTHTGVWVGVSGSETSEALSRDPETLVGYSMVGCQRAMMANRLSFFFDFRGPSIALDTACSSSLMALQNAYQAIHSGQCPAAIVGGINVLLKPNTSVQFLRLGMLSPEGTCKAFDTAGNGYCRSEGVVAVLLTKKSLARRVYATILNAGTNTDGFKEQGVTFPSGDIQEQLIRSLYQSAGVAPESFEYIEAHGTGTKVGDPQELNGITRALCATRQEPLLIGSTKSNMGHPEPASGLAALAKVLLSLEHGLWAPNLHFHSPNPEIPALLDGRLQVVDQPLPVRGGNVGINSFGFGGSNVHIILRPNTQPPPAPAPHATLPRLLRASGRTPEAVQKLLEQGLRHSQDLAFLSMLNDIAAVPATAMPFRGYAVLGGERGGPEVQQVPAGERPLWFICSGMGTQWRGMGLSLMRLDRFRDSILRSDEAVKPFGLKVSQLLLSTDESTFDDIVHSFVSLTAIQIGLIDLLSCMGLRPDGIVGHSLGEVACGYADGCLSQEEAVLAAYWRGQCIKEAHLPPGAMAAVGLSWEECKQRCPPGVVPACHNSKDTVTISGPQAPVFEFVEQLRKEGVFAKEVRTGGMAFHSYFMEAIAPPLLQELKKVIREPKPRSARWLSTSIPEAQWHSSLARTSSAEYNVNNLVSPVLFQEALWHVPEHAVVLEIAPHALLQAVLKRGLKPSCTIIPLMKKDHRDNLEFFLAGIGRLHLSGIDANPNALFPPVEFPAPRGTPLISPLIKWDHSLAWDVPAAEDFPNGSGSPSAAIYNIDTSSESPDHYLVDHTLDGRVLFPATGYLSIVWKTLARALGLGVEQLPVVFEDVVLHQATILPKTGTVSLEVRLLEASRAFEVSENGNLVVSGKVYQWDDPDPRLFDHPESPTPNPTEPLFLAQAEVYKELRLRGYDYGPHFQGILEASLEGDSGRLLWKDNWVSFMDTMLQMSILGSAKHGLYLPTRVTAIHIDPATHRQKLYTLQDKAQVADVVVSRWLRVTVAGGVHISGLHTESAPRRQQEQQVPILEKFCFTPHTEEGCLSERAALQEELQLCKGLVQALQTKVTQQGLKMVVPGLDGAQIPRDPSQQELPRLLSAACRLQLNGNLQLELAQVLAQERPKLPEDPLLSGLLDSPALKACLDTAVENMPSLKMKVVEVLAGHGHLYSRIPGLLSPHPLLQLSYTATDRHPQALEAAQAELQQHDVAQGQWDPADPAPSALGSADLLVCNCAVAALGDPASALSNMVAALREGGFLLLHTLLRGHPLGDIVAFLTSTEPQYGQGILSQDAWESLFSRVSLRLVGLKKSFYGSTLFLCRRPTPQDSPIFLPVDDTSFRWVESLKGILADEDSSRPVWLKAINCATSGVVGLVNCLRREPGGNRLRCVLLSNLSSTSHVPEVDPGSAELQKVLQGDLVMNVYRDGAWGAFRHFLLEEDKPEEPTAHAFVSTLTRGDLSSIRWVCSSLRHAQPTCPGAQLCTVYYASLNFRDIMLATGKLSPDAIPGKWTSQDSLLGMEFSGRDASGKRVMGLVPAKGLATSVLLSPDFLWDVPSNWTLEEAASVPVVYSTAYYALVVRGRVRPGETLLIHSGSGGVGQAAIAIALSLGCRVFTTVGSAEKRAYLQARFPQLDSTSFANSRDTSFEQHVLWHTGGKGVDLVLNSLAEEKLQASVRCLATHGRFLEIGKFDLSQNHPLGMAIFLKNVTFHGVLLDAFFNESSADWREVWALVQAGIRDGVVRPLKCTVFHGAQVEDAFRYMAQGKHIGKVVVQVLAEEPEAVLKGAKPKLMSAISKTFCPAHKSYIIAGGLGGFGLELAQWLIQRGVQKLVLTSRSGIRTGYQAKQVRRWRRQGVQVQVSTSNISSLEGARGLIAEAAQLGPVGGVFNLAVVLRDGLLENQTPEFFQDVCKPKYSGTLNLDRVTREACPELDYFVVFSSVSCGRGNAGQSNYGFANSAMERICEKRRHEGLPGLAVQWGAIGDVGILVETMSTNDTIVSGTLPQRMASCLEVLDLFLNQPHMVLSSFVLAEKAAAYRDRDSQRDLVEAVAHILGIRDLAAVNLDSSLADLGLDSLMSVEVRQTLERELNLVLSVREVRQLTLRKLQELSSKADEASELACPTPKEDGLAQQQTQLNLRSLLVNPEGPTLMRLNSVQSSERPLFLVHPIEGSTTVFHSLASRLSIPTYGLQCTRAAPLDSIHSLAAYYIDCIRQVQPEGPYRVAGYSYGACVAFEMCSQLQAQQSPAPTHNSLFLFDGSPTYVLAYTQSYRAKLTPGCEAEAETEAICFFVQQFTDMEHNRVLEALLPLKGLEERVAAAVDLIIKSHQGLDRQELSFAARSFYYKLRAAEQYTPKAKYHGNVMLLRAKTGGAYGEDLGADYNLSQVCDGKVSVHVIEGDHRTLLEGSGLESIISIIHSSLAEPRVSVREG
- ASSAY COMMENT: inhibition of human FAS-TE enzyme activity – biochemical, kinetic fluorescence intensity, dose response (AID 624326);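 note: rate of fluorescence rise from hydrolysis of a fluorogenic O-methyl fluorescein ester substrate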
- Type: functional
Active and inactive are the calls of the source.

{"COMPOUND": "CN(C(=O)Nc1ccc(Cl)cc1Cl)[C@H]1c2cc(Br)ccc2OC[C@H]1CO", "STUDY SYSTEM": "Fatty acid synthase (Homo sapiens)", "IC50": "11.3 µM (active)"}
{"COMPOUND": "COc1ccc(/C=C(\\NC(=O)c2ccc([N+](=O)[O-])cc2)C(=O)NCCCn2ccnc2)cc1", "STUDY SYSTEM": "Fatty acid synthase (Homo sapiens)", "IC50": "3.01 µM (active)"}
{"COMPOUND": "Cc1ccc(C)c(S(=O)(=O)ON2C(=O)c3ccccc3C2=O)c1", "STUDY SYSTEM": "Fatty acid synthase (Homo sapiens)", "IC50": "3.7 µM (active)"}
{"COMPOUND": "Cc1ccc(NC(=O)C2=C(c3ccccc3)S(=O)(=O)CCS2(=O)=O)cc1", "STUDY SYSTEM": "Fatty acid synthase (Homo sapiens)", "IC50": "1.61 µM (active)"}
{"COMPOUND": "Oc1c(Br)c(Br)c(Br)c(Br)c1Br", "STUDY SYSTEM": "Fatty acid synthase (Homo sapiens)", "IC50": "6.52 µM (active)"}
{"COMPOUND": "Cc1ccc(S(=O)(=O)Nc2cccc(-c3ccc(N4CCCCCC4)nn3)c2)cc1", "STUDY SYSTEM": "Fatty acid synthase (Homo sapiens)", "IC50": "3.42 µM (active)"}
{"COMPOUND": "NC(=NOC(=O)CC1CCCCC1)c1cccc([N+](=O)[O-])c1", "STUDY SYSTEM": "Fatty acid synthase (Homo sapiens)", "IC50": "8.29 µM (active)"}
{"COMPOUND": "CCOc1ccc(-c2ccc(NS(=O)(=O)c3cc([N+](=O)[O-])c(C)c([N+](=O)[O-])c3)cc2)nn1", "STUDY SYSTEM": "Fatty acid synthase (Homo sapiens)", "IC50": "0.706 µM (active)"}
{"COMPOUND": "O=C(O)c1cc(-c2ccc(/C=N/NC(=S)Nc3ccccc3)o2)ccc1Cl", "STUDY SYSTEM": "Fatty acid synthase (Homo sapiens)", "IC50": "16.1 µM (active)"}
{"COMPOUND": "CC1CCCC(C)N1C(=O)COC(=O)c1cc([N+](=O)[O-])ccc1N1CCOCC1 (stereo unspecified)", "STUDY SYSTEM": "Fatty acid synthase (Homo sapiens)", "IC50": "9.93 µM (active)"}
{"COMPOUND": "Cc1cc2c(cc1C)C(c1cccc([N+](=O)[O-])c1)CC(=O)N2 (stereo unspecified)", "STUDY SYSTEM": "Fatty acid synthase (Homo sapiens)", "IC50": "7.33 µM (active)"}

* * *

In this section we review reported AC50 values for a set of molecules.
- STUDY SYSTEM: Cytochrome P450 1A2 (Homo sapiens);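 note: PubChem cytochrome P450 panel assay, CYP1A2 panel member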
- Sequence (P05177 whole entry): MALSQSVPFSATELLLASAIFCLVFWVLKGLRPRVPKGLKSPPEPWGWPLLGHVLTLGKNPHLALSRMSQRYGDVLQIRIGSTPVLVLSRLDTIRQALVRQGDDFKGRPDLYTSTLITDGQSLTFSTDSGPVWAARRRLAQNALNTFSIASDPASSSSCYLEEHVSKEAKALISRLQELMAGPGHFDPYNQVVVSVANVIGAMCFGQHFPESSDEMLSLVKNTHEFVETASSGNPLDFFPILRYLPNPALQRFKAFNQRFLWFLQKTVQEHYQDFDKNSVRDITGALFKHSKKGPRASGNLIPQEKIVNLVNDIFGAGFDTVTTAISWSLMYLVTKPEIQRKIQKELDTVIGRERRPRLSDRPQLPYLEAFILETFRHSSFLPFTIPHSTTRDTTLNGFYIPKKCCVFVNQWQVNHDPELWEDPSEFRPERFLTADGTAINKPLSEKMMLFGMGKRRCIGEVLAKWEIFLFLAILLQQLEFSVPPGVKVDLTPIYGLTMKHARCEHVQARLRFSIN
Peptide text beside a SMILES is read from it. * marks the point of attachment. Boc = CC(C)(C)OC(=O)*
EXPERIMENTAL READOUT: AC50

{"MOLECULE": "CCOc1ccc(OCCOCCN2CCc3ccccc3C2)cc1", "STUDY SYSTEM": "Cytochrome P450 1A2 (Homo sapiens)", "RESULT": "20 µM (inconclusive)"}
{"MOLECULE": "CCn1c2ccccc2c2cc(/N=C3/SC(CC(=O)Nc4ccccc4)C(=O)N3C)ccc21 (stereo unspecified)", "STUDY SYSTEM": "Cytochrome P450 1A2 (Homo sapiens)", "RESULT": "3.16 µM (inconclusive)"}
{"MOLECULE": "CCN(CC)c1ccc(NC(=O)CN2CCN(c3ccccc3F)CC2)cc1", "STUDY SYSTEM": "Cytochrome P450 1A2 (Homo sapiens)", "RESULT": "28.2 µM (inconclusive)"}
{"MOLECULE": "N#Cc1cccc(-c2nc3cnc(Nc4ccccc4)nc3n(C[C@H]3CCCO3)c2=O)c1", "STUDY SYSTEM": "Cytochrome P450 1A2 (Homo sapiens)", "RESULT": "2 µM (inconclusive)"}
{"MOLECULE": "N[C@H](C(=O)O)[C@@H]1[C@@H](C(=O)O)C1(F)F", "STUDY SYSTEM": "Cytochrome P450 1A2 (Homo sapiens)", "RESULT": "31.6 µM (inconclusive)"}
{"MOLECULE": "CN(Cc1cc2ccccc2[nH]c1=O)S(C)(=O)=O", "STUDY SYSTEM": "Cytochrome P450 1A2 (Homo sapiens)", "RESULT": "28.2 µM (inconclusive)"}
{"MOLECULE": "O=C1c2ccccc2-c2ccc(NC(=O)[C@H]3CCCC[C@@H]3C(=O)O)cc21", "STUDY SYSTEM": "Cytochrome P450 1A2 (Homo sapiens)", "RESULT": "1 µM (inconclusive)"}
{"MOLECULE": "O=S(=O)(N=C(Nc1ccccn1)c1ccccc1)c1ccccc1", "STUDY SYSTEM": "Cytochrome P450 1A2 (Homo sapiens)", "RESULT": "14.1 µM (inconclusive)"}
{"MOLECULE": "c1ccc(-c2csc(Nc3nc(N4CCOCC4)nc(N4CCOCC4)n3)n2)cc1", "STUDY SYSTEM": "Cytochrome P450 1A2 (Homo sapiens)", "RESULT": "5.62 µM (inconclusive)"}
{"MOLECULE": "CCc1cc(C(=O)OC)c(NC(=O)CCCC(=O)O)s1", "STUDY SYSTEM": "Cytochrome P450 1A2 (Homo sapiens)", "RESULT": "25.1 µM (inconclusive)"}
{"MOLECULE": "Nc1cc(N)nc(SCC(=O)NNC(=O)c2ccc(Cl)cc2)n1", "STUDY SYSTEM": "Cytochrome P450 1A2 (Homo sapiens)", "RESULT": "15.8 µM (inconclusive)"}
{"MOLECULE": "NC(=O)Nc1n[nH]c(-c2ccccc2)n1", "STUDY SYSTEM": "Cytochrome P450 1A2 (Homo sapiens)", "RESULT": "3.16 µM (inconclusive)"}
{"MOLECULE": "Clc1ccc(CSc2ncnc3c2ncn3[C@@H]2CCCCO2)cc1", "STUDY SYSTEM": "Cytochrome P450 1A2 (Homo sapiens)", "RESULT": "1.58 µM (inconclusive)"}
{"MOLECULE": "COC(=O)[C@@]1(Cc2ccccc2)[C@H]2c3cc(C(=O)N4CCCC4)n(CCN4CNCC4=O)c3C[C@H]2CN1C(=O)c1ccccc1", "STUDY SYSTEM": "Cytochrome P450 1A2 (Homo sapiens)", "RESULT": "25.1 µM (inconclusive)"}
{"MOLECULE": "COc1ccc(S(=O)(=O)N2CCN(CC(=O)Nc3cccc(F)c3)CC2)cc1", "STUDY SYSTEM": "Cytochrome P450 1A2 (Homo sapiens)", "RESULT": "0.0794 µM (inconclusive)"}
{"MOLECULE": "CC(C)c1ccc(NC(=O)N(CCc2nc3ccccc3[nH]2)C2CCCC2)cc1", "STUDY SYSTEM": "Cytochrome P450 1A2 (Homo sapiens)", "RESULT": "11.2 µM (inconclusive)"}
{"MOLECULE": "Oc1cc(O)c2c(c1)O[C@H](c1ccc(O)c(O)c1)[C@@H](O)[C@@H]2c1c(O)cc(O)c2c1O[C@@H](c1ccc(O)c(O)c1)[C@H](O)C2", "STUDY SYSTEM": "Cytochrome P450 1A2 (Homo sapiens)", "RESULT": "2.51 µM (inconclusive)"}
{"MOLECULE": "N#CC1=C(N)OC2=C(C(=O)CCC2)C12CCC1(CC2)OCCO1", "STUDY SYSTEM": "Cytochrome P450 1A2 (Homo sapiens)", "RESULT": "25.1 µM (inconclusive)"}
{"MOLECULE": "CCn1c(COc2ccc(C)cc2)nnc1SCc1ccc(C#N)cc1", "STUDY SYSTEM": "Cytochrome P450 1A2 (Homo sapiens)", "RESULT": "28.2 µM (inconclusive)"}
{"MOLECULE": "CC(C)C(NC(=O)OC(C)(C)C)C(=O)N1CCCC1C(=O)NC(Cc1ccccc1)C(N)=O (stereo not drawn) (Boc-Val-Pro-Phe-NH2; configuration not given here)", "STUDY SYSTEM": "Cytochrome P450 1A2 (Homo sapiens)", "RESULT": "2 µM (inconclusive)"}
{"MOLECULE": "c1cncc(-c2cncnc2NC2CCNCC2)c1", "STUDY SYSTEM": "Cytochrome P450 1A2 (Homo sapiens)", "RESULT": "12.6 µM (inconclusive)"}
